FYI, the data here is from patent US10941158B2.

Below is a list of entries, each paired with its recorded IC90 value.
Test system: Fusarium moniliforme (Fm)
ASSAY INFO: Growth inhibition assay of fungal pathogens
Assay type: cell-based
SETUP CONDITIONS: Fusarium verticillioides, 48 h, Table 4a, 48 hours; read-out: Concentration at 90% Inhibition Fm
# output: bare number, implied unit µg/mL

// known answers, use as guide
[[record]]
compound = "COc1ccc(F)cc1[C@H](Cn1c(=O)n(CC(=O)N2CCCC2)c(=O)c2c(C)c(-n3cccn3)sc21)OC(C)C [Compound I-28]"
result_value = 0.4

[[record]]
compound = "COc1ccc(F)cc1[C@H](Cn1c(=O)n([C@@H](C)C(=O)N2CCCC2)c(=O)c2c(C)c(-n3cccn3)sc21)OC(C)C [Compound I-31]"
result_value = 0.08

[[record]]
compound = "COc1ccc(F)cc1[C@H](Cn1c(=O)n(C(C)(C)C(=O)N2CCCC2)c(=O)c2c(C)c(-n3cccn3)sc21)OC1CCOCC1 [Compound I-7]"
result_value = 0.08

[[record]]
compound = "COc1ccccc1[C@H](Cn1c(=O)n(C(C)(C)C(=O)N2CCCC2)c(=O)c2c(C)c(-n3cccn3)sc21)OCC(C)C [Compound I-22]"
result_value = 2

[[record]]
compound = "COc1ccccc1[C@H](Cn1c(=O)n(C(C)(C)C(=O)N2CCCC2)c(=O)c2c(C)c(-n3cccn3)sc21)OC1CCOCC1 [Compound I-12]"
result_value = 0.4


Input line: Suppose we examine the compound COc1ccc(F)cc1[C@H](Cn1c(=O)n(C(C)(C)C(=O)NC(C)C)c(=O)c2c(C)c(-n3cccn3)sc21)OC(C)C.I [Compound I-1] ; what IC90 value has been reported?
Output line: 0.08

Input line: Suppose we examine the compound COc1ccc(F)cc1[C@H](Cn1c(=O)n(C(C)(C)C(=O)N2CC=CC2)c(=O)c2c(C)c(-n3cccn3)sc21)OC1CCOCC1 [Compound I-45] ; what IC90 value has been reported?
Output line: 2

Input line: Suppose we examine the compound COc1ccc(F)cc1[C@H](Cn1c(=O)n(C(C)(C)C(=O)N2CCCC2)c(=O)c2c(C)c(-n3cccn3)sc21)OCCO [Compound I-36] ; what IC90 value has been reported?
Output line: 2
